target-system: ENPP-1 ECD (Homo sapiens (Human), UniProt P22413)
Sequence (P22413 98-925): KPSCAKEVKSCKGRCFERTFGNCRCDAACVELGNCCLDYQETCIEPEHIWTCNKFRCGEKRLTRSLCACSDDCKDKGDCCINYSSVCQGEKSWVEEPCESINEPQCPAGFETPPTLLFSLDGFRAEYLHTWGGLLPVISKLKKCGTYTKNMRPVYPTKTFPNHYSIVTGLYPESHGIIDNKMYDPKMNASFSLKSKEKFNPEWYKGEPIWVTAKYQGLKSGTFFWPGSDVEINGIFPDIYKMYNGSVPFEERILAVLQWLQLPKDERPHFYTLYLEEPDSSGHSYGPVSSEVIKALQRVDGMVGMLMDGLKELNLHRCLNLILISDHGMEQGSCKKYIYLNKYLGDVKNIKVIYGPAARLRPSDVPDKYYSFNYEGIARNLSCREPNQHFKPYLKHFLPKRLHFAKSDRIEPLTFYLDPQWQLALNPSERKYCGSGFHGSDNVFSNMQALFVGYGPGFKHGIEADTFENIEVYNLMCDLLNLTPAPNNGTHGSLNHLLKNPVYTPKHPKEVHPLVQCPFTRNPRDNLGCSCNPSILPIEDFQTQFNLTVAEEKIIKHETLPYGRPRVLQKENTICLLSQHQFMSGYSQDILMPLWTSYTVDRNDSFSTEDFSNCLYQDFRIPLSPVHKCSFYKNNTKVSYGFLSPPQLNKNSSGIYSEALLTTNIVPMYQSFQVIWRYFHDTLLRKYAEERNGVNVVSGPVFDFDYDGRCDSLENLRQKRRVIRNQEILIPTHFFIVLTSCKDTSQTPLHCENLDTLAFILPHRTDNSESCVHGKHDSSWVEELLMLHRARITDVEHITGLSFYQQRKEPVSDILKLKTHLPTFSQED
method-summary: Assay 2: inhibition of ENPP1 hydrolysis of 2′,3′-cGAMP (AMP-Glo, […] enzyme)
condition-description: Assay 2 (KI), inhibition of ENPP1 hydrolysis of 2′,3′-cGAMP; no unit in Table 18 (Table 17 legend for this assay uses nM)
Parameter Ki: see the listing below.
attribute-measured: Ki (nM)

>  <compound>
COc1cccc2c(N3CCC4(CC3)CCN4S(C)(=N)=O)ncnc12 (stereo not drawn)

>  <reported-value>
110

$$$$
>  <compound>
COc1ccc2c(NCc3ccc(S(C)(=N)=O)cc3)ccnc2c1 (stereo not drawn)

>  <reported-value>
1.7

$$$$
>  <compound>
CCOc1cccc2c(N3CCC(CS(C)(=N)=O)CC3)ncnc12 (stereo not drawn)

>  <reported-value>
0.19

$$$$
>  <compound>
COc1cccc2c(N3CCC(CS(C)(=N)=O)CC3)c(C#N)cnc12 (stereo not drawn)

>  <reported-value>
0.048

$$$$
>  <compound>
COc1ccc2c(O[C@H](C)c3cccc(S(C)(=N)=O)c3)ccnc2c1 (stereo partly drawn)

>  <reported-value>
2.6

$$$$
>  <compound>
COc1cc2ncnc(N3CCC4(CC3)CCN(S(=N)(=O)C3CC3)C4)c2cc1OC (stereo not drawn)

>  <reported-value>
0.021

$$$$
>  <compound>
COc1cccc2c(N3CCC(O)(CS(C)(=N)=O)CC3)nc(C)nc12 (stereo not drawn)

>  <reported-value>
0.43

$$$$
>  <compound>
COc1ccc2c(-c3ccc4c(c3)CN(S(C)(=N)=O)CC4)ccnc2n1 (stereo not drawn)

>  <reported-value>
21

$$$$
>  <compound>
COc1cccc2c(N3CCC(CS(=N)(=O)C4CC4)CC3)c(C#N)cnc12 (stereo not drawn)

>  <reported-value>
0.033

$$$$
>  <compound>
COc1cc2ncnc(N3CCC4(CCN(S(C)(=N)=O)CC4)C3)c2cc1OC (stereo not drawn)

>  <reported-value>
0.037

$$$$
>  <compound>
COc1ccc2c(OCc3ccc(S(C)(=N)=O)cc3F)ccnc2c1 (stereo not drawn)

>  <reported-value>
1.4

$$$$
>  <compound>
COc1cc2ncnc(OCC3CCS(=N)(=O)CC3)c2cc1OC (stereo not drawn)

>  <reported-value>
49

$$$$
>  <compound>
COc1ccc2c(COc3ccc(S(C)(=N)=O)cc3)ccnc2c1 (stereo not drawn)

>  <reported-value>
1.2

$$$$
>  <compound>
COc1cc2nnc(C)c(N3CCC4(CC3)CCN(S(C)(=N)=O)C4)c2cc1Cl (stereo not drawn)

>  <reported-value>
0.25

$$$$
>  <compound>
COc1cc2ncnc(N3CCC(CCS(C)(=N)=O)CC3)c2cc1OC (stereo not drawn)

>  <reported-value>
0.69

$$$$
>  <compound>
CS(=N)(=O)c1ccc(Oc2ccnc3ccccc23)cc1 (stereo not drawn)

>  <reported-value>
110

$$$$
>  <compound>
COc1cc2ncnc(OCc3cccc(S(C)(=N)=O)c3)c2cc1OC (stereo not drawn)

>  <reported-value>
0.17

$$$$
>  <compound>
COc1ccc2c(OCC3CCS(=N)(=O)CC3)ccnc2c1 (single isomer, unassigned) [Compound 107b]

>  <reported-value>
74

$$$$

----------
target-system: ENPP-1 ECD (Homo sapiens (Human), UniProt P22413)
method-summary: Assay 2: inhibition of ENPP1 hydrolysis of 2′,3′-cGAMP (AMP-Glo, […] enzyme)
condition-description: read-out: Assay 2 (KI); ENPP1 hydrolysis of 2′,3′-cGAMP, AMP-Glo, […] ENPP-1, 24 μM cGAMP
pKi: −log10 of the molar value.

>  <compound>
COc1cc2nccc(-c3ccc4c(c3)CN([S@@](C)(=N)=O)CC4)c2cc1OC [Compound 161a]

>  <target-system>
ENPP-1 ECD (Homo sapiens (Human), UniProt P22413)

>  <pKi>
> 8.52

$$$$
>  <compound>
COc1ccc2c(Oc3ccc([S@@](=N)(=O)C4CC4)cc3)ccnc2c1 [Compound 60a]

>  <target-system>
ENPP-1 ECD (Homo sapiens (Human), UniProt P22413)

>  <pKi>
> 8.52

$$$$
>  <compound>
COc1ccc2c(-c3ccc4c(c3)CN([S@@](C)(=N)=O)CC4)ccnc2c1 [Compound 52b]

>  <target-system>
ENPP-1 ECD (Homo sapiens (Human), UniProt P22413)

>  <pKi>
6.52 to 8.52

$$$$
>  <compound>
COc1ccc2c(OCc3cccc([S@@](C)(=N)=O)c3)ccnc2c1 [Compound 133a]

>  <target-system>
ENPP-1 ECD (Homo sapiens (Human), UniProt P22413)

>  <pKi>
> 8.52

$$$$
